Measured koff of individual entries
Biological target: DN quality control product recombinant protein (a recombinant antigen produced by the company itself) (dengue virus)
Assay: AMO sensor, antibody on sensor, antigen in solution
Express it in s⁻¹; write the number only.

Data request, read-out koff, for WT 1-20 (antibody, V domains shown) VH: QVQLQQSGAELVRPGTSVKISCKASGYSFTDYWIGWVKQRPGHGLEWIGDMVPGDIYINYQEKFKGKATLTADTSSNTAYMQLSSLTSEDSAVYFCTNFITVGGLDYWGRGTSLTVSS VL: DVVMTQTPLTLSVTIGQPASISCKSSQSLLESDGRTYLNWLLQRPGQSPKRLIYLVTKLDSGVPDRFTGSGSVTDFTLKISRVESEDLGVYYCWWGTHFAHTFGAGTKLEVKR 0.000143

Moving on to Mutation 1-40 (antibody, V domains shown) VH: QVQLQQSGAELVRPGTSVKISCKASGYTFTDYWIGWVKQRPGHGLEWIGDMFPGDVYINYQEKFKGKATLTADTSSNTAYMQLSSLTSEDSAVYFCTNFITLGGIDYWGRGTSLTVSS VL: DVVMTQTPLTLSVTIGQPASISCKSSNSLLDSDGRTYLNWLLQRPGQSPKRLIYLVSKIDSGVPDRFTGSGSVTDFTLKISRVESEDLGVYYCWYGTHFPHTFGAGTKLEVKR 0.000171

Reference source for all entries: patent US20210301000A1
